The reported measurements were obtained from patent US20150105252A1.

Entries and their Wheat plant response rating
# Tested on: wheat
# assay-name: Test A postemergence
# Assay type: in vivo, Triticum aestivum
# assay-context: Postemergence, 500 g ai/ha; 0 to 100 scale (0 no effect, 100 complete control)

>  <compound>
CCCNC(=O)c1cc(CCCl)n(Cc2ccnc(C(F)(F)F)c2)n1 [Compound 145]

>  <Wheat plant response rating>
80

$$$$
>  <compound>
CCc1cc(C(=O)NCC(F)(F)F)nn1Cc1cc(C(F)(F)F)nn1CC [Compound 119]

>  <Wheat plant response rating>
10

$$$$
>  <compound>
CCCNC(=O)c1cc(CC)n(Cc2cc(C(F)(F)F)nn2C(C)C)n1 [Compound 209]

>  <Wheat plant response rating>
0

$$$$
>  <compound>
CCc1cc(C(=O)NCC2CC2)nn1Cc1ccnc(C(F)(F)F)c1 [Compound 199]

>  <Wheat plant response rating>
80

$$$$
>  <compound>
CCCc1cc(C(=O)NCC)nn1Cc1cc(C(F)(F)F)nn1C [Compound 129]

>  <Wheat plant response rating>
70

$$$$
>  <compound>
CCCc1cc(C(=O)NCC(F)(F)F)nn1Cc1cc(C(F)(F)F)nn1C [Compound 138]

>  <Wheat plant response rating>
90

$$$$
>  <compound>
CCCCNC(=O)c1cc(Cl)n(Cc2cccc(C(F)(F)F)c2)n1 [Compound 171]

>  <Wheat plant response rating>
0

$$$$
>  <compound>
CCCc1cc(C(=O)Nc2ccc(F)cc2)nn1Cc1cc(C(F)(F)F)nn1C [Compound 150]

>  <Wheat plant response rating>
0

$$$$
>  <compound>
CCNC(=O)c1cc(CC)n(Oc2cccc(OC(F)(F)F)c2)n1 [Compound 223]

>  <Wheat plant response rating>
10

$$$$

---

# Test system: johnsongrass
# assay-name: Test F preemergence
# Assay type: in vivo, Sorghum halepense
# assay-context: Preemergence; 62 g ai/ha; scale 0 to 100
Entries and their Plant response rating, Johnsongrass
measured-parameter: Plant response rating, Johnsongrass

>  <molecule-smiles>
Cc1cc(C(=O)NC(C)C)nn1Cc1ccnc(C(F)(F)F)c1

>  <result>
0

$$$$
>  <molecule-smiles>
CCNC(=O)c1cc(CCCl)n(Cc2ccnc(C(F)(F)F)c2)n1

>  <result>
20

$$$$
>  <molecule-smiles>
CCOc1cc(C(=O)NCC(F)(F)F)nn1Cc1ccnc(C(F)(F)F)c1

>  <result>
75

$$$$
>  <molecule-smiles>
CCc1cc(C(=O)NC2CC2)nn1Cc1ccnc(OCC(F)(F)F)c1

>  <result>
20

$$$$

---

# Test system: kochia
# assay-name: Test C postemergence
# Assay type: in vivo, Kochia scoparia
# assay-context: postemergence; 125 g ai/ha; scale 0 to 100, 0 no effect, 100 complete control

>  <compound>
CCCc1cc(C(=O)NCC(F)(F)F)nn1Cc1ccnc(C(F)(F)F)c1 [Compound 105]

>  <Plant response rating, Kochia>
90

$$$$
>  <compound>
CCCc1cc(C(=O)NCC)nn1Cc1cc(C(F)(F)F)nn1C [Compound 129]

>  <Plant response rating, Kochia>
90

$$$$
>  <compound>
CCCNC(=O)c1cc(CCC)n(Cc2cc(C(F)(F)F)nn2C)n1 [Compound 198]

>  <Plant response rating, Kochia>
85

$$$$
>  <compound>
CCc1cc(C(=O)NCC(F)(F)F)nn1Cc1ccnc(C(F)(F)F)c1 [Compound 78]

>  <Plant response rating, Kochia>
90

$$$$
>  <compound>
CCNC(=O)c1cc(CC)n(Cc2ccnc(OC(F)F)c2)n1 [Compound 130]

>  <Plant response rating, Kochia>
90

$$$$
>  <compound>
CCOc1cc(C(=O)NCC(F)(F)F)nn1Cc1ccnc(C(F)(F)F)c1 [Compound 104]

>  <Plant response rating, Kochia>
90

$$$$
>  <compound>
CCOc1cc(C(=O)NC2CC2)nn1Cc1ccnc(C(F)(F)F)c1 [Compound 189]

>  <Plant response rating, Kochia>
90

$$$$
>  <compound>
CCNC(=O)c1cc(CC)n(Cc2ccnc(C(F)(F)F)c2)n1 [Compound 196]

>  <Plant response rating, Kochia>
90

$$$$
